# assayedSystem: T1, human TL1A extracellular domain with N-terminal HIS and FLAG tag (human, UniProt O95150 72-251)
# T1 construct: whole entry named. ~70 kDa fraction purified by gel filtration
# T1 sequence: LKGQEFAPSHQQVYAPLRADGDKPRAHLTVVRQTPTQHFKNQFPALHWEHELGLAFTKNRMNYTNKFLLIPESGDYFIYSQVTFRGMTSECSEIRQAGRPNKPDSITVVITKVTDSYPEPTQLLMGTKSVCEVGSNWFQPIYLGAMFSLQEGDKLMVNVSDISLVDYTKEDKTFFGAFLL
# protocolSummary: SPR run 3; supernatant on Protein A; TL1A 10 ug/mL; timepoint 59
Measured TL1A Binding Level (Early), listed per entry.
parameter: TL1A Binding Level (Early) (RU)

binder="320-305 (antibody, human IgG1, name in Kabat numbering, V domains shown, human IgG1, lambda) VH: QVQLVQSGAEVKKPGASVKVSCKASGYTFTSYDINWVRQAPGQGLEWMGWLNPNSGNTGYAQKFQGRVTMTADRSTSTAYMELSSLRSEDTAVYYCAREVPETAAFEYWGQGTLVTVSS VL: QSVLTQPPSVSGAPGQRVTISCTSSSSDIGAGLGVDWYQQLPGTAPKLLIEGYYNRPSGVPDRFSGSKSGTSASLTITGLLPEDEGDYYCQSYDGTLSALFGGGTKLTVLG" observedresult=34
binder="320-292 (antibody, human IgG1, name in Kabat numbering, V domains shown, human IgG1, lambda) VH: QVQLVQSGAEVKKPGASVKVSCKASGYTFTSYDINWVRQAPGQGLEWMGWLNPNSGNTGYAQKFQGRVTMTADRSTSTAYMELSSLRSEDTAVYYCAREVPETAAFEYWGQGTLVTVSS VL: QSVLTQPPSVSGAPGQRVTISCTSSSSDIGAGLYVHWYQQLPGTAPKLLIEGYYNRPSGVPDRFSGSKSGTSASLTITGLLPEDEGDYYCQSYDGTLSALFGGGTKLTVLG" observedresult=111
binder="320-302 (antibody, human IgG1, name in Kabat numbering, V domains shown, human IgG1, lambda) VH: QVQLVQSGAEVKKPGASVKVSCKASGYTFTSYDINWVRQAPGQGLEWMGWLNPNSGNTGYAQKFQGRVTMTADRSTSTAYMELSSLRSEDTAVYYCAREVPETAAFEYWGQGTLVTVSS VL: QSVLTQPPSVSGAPGQRVTISCTSSSSDIGAGLGVAWYQQLPGTAPKLLIEGYYNRPSGVPDRFSGSKSGTSASLTITGLLPEDEGDYYCQSYDGTLSALFGGGTKLTVLG" observedresult=99
binder="320-267 (antibody, human IgG1, V domains shown, human IgG1, lambda) VH: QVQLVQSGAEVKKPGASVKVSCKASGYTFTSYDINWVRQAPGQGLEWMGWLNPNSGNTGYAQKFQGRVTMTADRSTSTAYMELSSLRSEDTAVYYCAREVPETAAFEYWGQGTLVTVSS VL: QSVLTQPPSVSGAPGQRVTISCTSSSSDIGAALGVHWYQQLPGTAPKLLIEGYYNRPSGVPDRFSGSKSGTSASLTITGLLPEDEGDYYCQSYDGTLSALFGGGTKLTVLG" observedresult=299
binder="320-265 (antibody, human IgG1, name in Kabat numbering, V domains shown, human IgG1, lambda) VH: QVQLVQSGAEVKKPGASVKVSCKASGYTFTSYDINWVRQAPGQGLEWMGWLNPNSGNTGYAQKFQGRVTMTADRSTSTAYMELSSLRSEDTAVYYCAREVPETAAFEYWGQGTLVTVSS VL: QSVLTQPPSVSGAPGQRVTISCTSSSSDIGWGLGVHWYQQLPGTAPKLLIEGYYNRPSGVPDRFSGSKSGTSASLTITGLLPEDEGDYYCQSYDGTLSALFGGGTKLTVLG" observedresult=168

Reference for the values: patent US20170081400A1
